- target_of_assay: UniProtKB P49840
experimental_readout: IC50

Reference set (2 entries):
1) CC[C@]1(c2cccc(-c3ccnn3CCC(C)C)c2)C2=CN=NC2NC2=C1C(=O)CC(C)(C)C2 (stereo partly drawn) [US20250313563, Compound 946096]	100 to 1000 nM
2) CCC1(c2cccc(-c3cnn4c3CCCC4)c2)C2=C(CC(C)(C)CC2=O)NC2N=NC(C)=C21 (stereo not drawn) [US20250313563, Compound 884002]	< 100 nM

Turning now to a further compound:
The reported value for COC(=O)C1CCC2(CC1)C1=C(N=NC1)NC1=C2C(=O)CC(C)(C)C1 (stereo not drawn) [US20250313563, Compound 918277] in terms of IC50 is < 100 nM

---

Measurement record for Glycogen synthase kinase-3 alpha (Homo sapiens, UniProt P49840); quantity recorded: IC50.

1. CC[C@@]1(c2cccc(Cl)c2)C2=C(CC(C)(C)CC2=O)NC2N=NC(Br)=C21 (stereo partly specified)	100 to 1000 nM
2. CCC1(c2cccc(N3CCCC3)c2)C2=CN=NC2NC2=C1C(=O)CC(C)(C)C2 (stereo unspecified)	100 to 1000 nM
3. Cn1ccc(S(=O)(=O)N2CC3(C2)C2=C(N=NC2)NC2=C3C(=O)CC(C)(C)C2)n1	< 100 nM
4. CC[C@@]1(c2cccc(Nc3ncccn3)c2)C2=CN=NC2NC2=C1C(=O)CC(C)(C)C2 (stereo partly specified)	1000 to 5000 nM
5. CCC1(c2cccc(N(C)c3ccc(OC)nc3)c2)C2=CN=NC2NC2=C1C(=O)CC(C)(C)C2 (stereo unspecified)	100 to 1000 nM

Please report IC50 for every entry that follows.
1. CC[C@]1(c2cccc(-c3ccncc3)c2)C2=C(CC(C)(C)CC2=O)NC2N=NC(C(F)(F)F)=C21 (stereo partly specified)
2. CN1C[C@]2(C3=C(CC(C)(C)CC3=O)NC3N=NC(C4CC(F)(F)C4)=C32)c2ccccc21 (stereo partly specified)
3. CC(C)(C)CC1=C2C(N=N1)NC1=C(C(=O)CC(C)(C)C1)C21CCCc2ccccc21 (stereo unspecified)
4. CCC1(c2cccc(C(F)(F)F)c2)C2=CN=NC2NC2=C1C(=O)N(c1ccccc1)CC2 (stereo unspecified)
5. CCC1(c2cccc(N(C)c3ncccn3)c2)C2=C(CC(C)(C)NC2=O)NC2N=NC(C(F)(F)F)=C21 (stereo unspecified)
6. CC1(C)CC(=O)C2=C(C1)NC1=C(CN=N1)[C@]21C[C@@]2(CCN(CC(F)(F)F)C2)C1

< 100 nM
1000 to 5000 nM
100 to 1000 nM
< 100 nM
< 100 nM
100 to 1000 nM

List the reported IC50 of each molecule below.
1. COc1ccccc1S(=O)(=O)N1CC2(C1)C1=C(N=NC1)NC1=C2C(=O)CC(C)(C)C1
2. CCC1(c2cccc(C)c2)C2=CN=NC2NC2=C1C(=O)CC(C)(C)C2 (stereo unspecified)
3. CCC1(c2cccc(-c3cncn3C)c2)C2=C(CC(C)(C)NC2=O)NC2N=NC(C(F)(F)F)=C21 (stereo unspecified)
4. CCC1(c2cccc(-c3ccnc(C)c3)c2)C2=C(CC(C)(C)NC2=O)NC2N=NC(C(F)(F)F)=C21 (stereo unspecified)
5. CC[C@@]1(c2cccc(-c3ccnc(C)c3)c2)C2=C(CC(C)(C)CC2=O)NC2N=NC(C)=C21 (stereo partly specified)
6. CC[C@]1(c2cccc(C3=C4CC=CC(F)=C4N=CC3)c2)C2=CN=NC2NC2=C1C(=O)NC(C)(C)C2 (stereo partly specified)
7. CC[C@@]1(c2cccc(-c3ccnc(C)c3C)c2)C2=CN=NC2NC2=C1C(=O)CC(C)(C)C2 (stereo partly specified)

< 100 nM
< 100 nM
< 100 nM
< 100 nM
100 to 1000 nM
1000 to 5000 nM
100 to 1000 nM

---

Can you tell me pIC50 for the items I'm about to list?
- target_of_assay: Glycogen synthase kinase-3 beta (Homo sapiens, UniProt P49841)
- Sequence (P49841 whole entry): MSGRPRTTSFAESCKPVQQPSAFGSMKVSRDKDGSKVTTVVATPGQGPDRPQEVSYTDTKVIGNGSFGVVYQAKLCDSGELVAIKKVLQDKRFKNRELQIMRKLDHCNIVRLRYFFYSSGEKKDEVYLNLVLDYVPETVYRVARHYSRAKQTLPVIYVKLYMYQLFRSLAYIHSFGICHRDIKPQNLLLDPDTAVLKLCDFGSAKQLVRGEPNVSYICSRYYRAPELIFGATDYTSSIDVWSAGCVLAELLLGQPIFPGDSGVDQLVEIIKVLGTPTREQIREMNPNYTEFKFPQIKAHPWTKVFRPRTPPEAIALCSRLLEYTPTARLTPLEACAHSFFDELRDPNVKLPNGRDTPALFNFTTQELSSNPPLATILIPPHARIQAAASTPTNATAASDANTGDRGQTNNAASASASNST
pIC50: −log10 of the molar value.

Study these solved cases before continuing.
1. O=C1C[C@@]2(CCOC2)CC2=C1C1(CCOCC1)C1=C(N=NC1)N2	6.00 to 7.00
2. CC1(C)CC(=O)C2=C(C1)NC1=C(CN=N1)C21CCN(S(=O)(=O)c2cnn(-c3ccccc3)c2)CC1	> 7.00
3. CC[C@@]1(c2cccc(S(C)(=O)=O)c2)C2=CN=NC2NC2=C1C(=O)NC(C)(C)C2 (some centres undefined)	> 7.00

Here's the next entry for you.
pIC50 recorded for this compound, CCC1(c2cccc(Oc3ncccn3)c2)C2=CN=NC2NC2=C1C(=O)NC(C)(C)C2 (centres undefined) , is 6.00 to 7.00

---

- target_of_assay: Glycogen synthase kinase-3 beta (Homo sapiens, UniProt P49841)
pIC50: −log10 of the molar value.
Please go through the items and note down their pIC50.

Here is how some compounds turned out for pIC50.
1) CC[C@]1(c2cccc(-c3cncn3C)c2)C2=C(CC(C)(C)CC2=O)NC2N=NC(C)=C21 (stereo partly specified)	6.00 to 7.00
2) CC[C@]1(c2cccc(-c3ccnc(C)c3)c2)C2=CN=NC2NC2=C1C(=O)NC1(CCC1)C2 (stereo partly specified)	< 5.30

Record pIC50 for all entries; do not skip any.
1. CCC1(c2cccc(-c3ccnc(C)c3F)c2)C2=C(CC(C)(C)NC2=O)NC2N=NC(C(F)(F)F)=C21 (stereo unspecified)
2. CCC1(c2cccc(-c3cnnc(C)c3)c2)C2=CN=NC2NC2=C1C(=O)CC(C)(C)C2 (stereo unspecified)
3. COc1ccc(S(=O)(=O)N2CCC3(CC2)C2=C(N=NC2)NC2=C3C(=O)CC(C)(C)C2)cc1 [US20250313563, Compound 917143]
4. CC[C@]1(c2cccc(C(F)(F)F)c2)C2=C(N=NC2)NC2=C1C(=O)CC2
5. CCC1(c2cccc(-c3ccnc4c3CCCC4)c2)C2=CN=NC2NC2=C1C(=O)CC(C)(C)C2 (stereo unspecified)
6. CC1(C)CC(=O)C2=C(C1)NC1=C(CN=N1)C21COC2(CN(C(=O)C3CC(C)(C)C3)C2)C1 (stereo unspecified)
7. CCC1(c2cccc(-c3ccncc3C)c2)C2=CN=NC2NC2=C1C(=O)NC(C)(C)C2 (stereo unspecified)
8. CC[C@]1(c2cccc(-c3cc(OC)nc4ccccc34)c2)C2=CN=NC2NC2=C1C(=O)NC(C)(C)C2 (stereo partly specified)

1. > 7.00
2. 6.00 to 7.00
3. > 7.00
4. 6.00 to 7.00
5. > 7.00
6. 6.00 to 7.00
7. > 7.00
8. < 5.30

---

The next entries give measured pIC50 for UniProt P49841.
pIC50: −log10 of the molar value.

1. CC1(C)CC(=O)C2=C(C1)NC1=C(CN=N1)C21CN(S(=O)(=O)C2CCCCC2)C1	> 7.00
2. C[C@@H]1C[C@H](C)C[C@@]2(C1)C1=C(N=NC1)NC1=C2C(=O)CC(C)(C)C1	6.00 to 7.00
3. CC[C@@]1(c2cccc(C(F)(F)F)c2)C2=C(N=NC2)NC2=C1C(=O)N(Cc1ccccc1)C2	< 5.30
4. CC[C@]1(c2cccc(-c3cnn(C)c3C)c2)C2=C(CC(C)(C)NC2=O)NC2N=NC(C(F)(F)F)=C21 (stereo partly drawn)	6.00 to 7.00
5. CC[C@]1(c2cccc(N3CCOCC3)c2)C2=C(CC(C)(C)CC2=O)NC2N=NC(C(F)(F)F)=C21 (stereo partly drawn)	> 7.00

Quick batch: pIC50 for everything below.
1. CC[C@]1(c2cccc(-c3cnn(-c4ccccn4)c3)c2)C2=CN=NC2NC2=C1C(=O)NC(C)(C)C2 (stereo partly drawn)
2. CC[C@]1(c2cccc(N3CCOCC3)c2)C2=C(CC(C)(C)NC2=O)NC2N=NC(C(F)(F)F)=C21 (stereo partly drawn)
3. CCC1(c2cccc(N(Cc3ccccc3)C(C)=O)c2)C2=CN=NC2NC2=C1C(=O)CC(C)(C)C2 (stereo not drawn)

< 5.30
6.00 to 7.00
> 7.00

List pIC50 for every entry below, keeping the order given.
1. CC1(C)CC(=O)C2=C(C1)NC1=C(CN=N1)[C@]21CCN(S(=O)(=O)c2ccccc2)C1
2. CC[C@@]1(c2cccc(-c3ccncc3)c2)C2=C(CC(C)(C)CC2=O)NC2N=NC(C)=C21 (stereo partly drawn)
3. Cn1ccc(CN2CC3(C2)C2=C(N=NC2)NC2=C3C(=O)CC(C)(C)C2)n1
4. CC[C@]1(c2cccc(N3CCCCC3)c2)C2=CN=NC2NC2=C1C(=O)CC(C)(C)C2 (stereo partly drawn)
5. CC[C@]1(c2cccc(-c3ccnc4c3CCC4)c2)C2=CN=NC2NC2=C1C(=O)CC(C)(C)C2 (stereo partly drawn)

1: 6.00 to 7.00; 2: > 7.00; 3: < 5.30; 4: < 5.30; 5: < 5.30
